Ref: paper PMC5108039

Below, each entry is listed with its recorded pIC50.
Biological target: HLA-DRB1*04:01 (plate-bound, peptide-binding assays) (human)
Assay: competition peptide-binding assay on plates
pIC50: −log10 of the molar value. Square brackets hold non-standard residues; d marks the D form. Ends that are not written are not given here. Cit = NC(=O)NCCC[C@H](N)C(=O)O
metric: pIC50

K[Cit]IAKAVNEKSCNCL (cysteine pairing not given here) [α-enolase peptide Cit326 (residues 326–340), citrullinated] ... 5.72
KRIAKAVNEKSCNCL [α-enolase peptide 326 (residues 326–340), native] ... 5.77
